Experiment: Plasma clearance in C57BL mouse at 2 mg/kg, iv or 10 mg/kg, po administered as single dose
Format: ADME, organism-based
measurement.name: clearance

line.notation | measurement.name | measured
COc1cccc(Cn2ncc3ccc(-c4cn[nH]c4)cc3c2=O)c1 | clearance | 29.1 mL/min/kg

====

Assay: Oral bioavailability in C57BL mouse at 10 mg/kg administered as single dose
Type: ADME, organism-based
Details: in vivo

line.notation | bioavailability (%)
COc1cccc(Cn2ncc3ccc(-c4cn[nH]c4)cc3c2=O)c1 | 65.3

====

Molecular target: Rhodopsin kinase GRK1 (Homo sapiens, UniProt Q15835)
Sequence (Q15835 whole entry): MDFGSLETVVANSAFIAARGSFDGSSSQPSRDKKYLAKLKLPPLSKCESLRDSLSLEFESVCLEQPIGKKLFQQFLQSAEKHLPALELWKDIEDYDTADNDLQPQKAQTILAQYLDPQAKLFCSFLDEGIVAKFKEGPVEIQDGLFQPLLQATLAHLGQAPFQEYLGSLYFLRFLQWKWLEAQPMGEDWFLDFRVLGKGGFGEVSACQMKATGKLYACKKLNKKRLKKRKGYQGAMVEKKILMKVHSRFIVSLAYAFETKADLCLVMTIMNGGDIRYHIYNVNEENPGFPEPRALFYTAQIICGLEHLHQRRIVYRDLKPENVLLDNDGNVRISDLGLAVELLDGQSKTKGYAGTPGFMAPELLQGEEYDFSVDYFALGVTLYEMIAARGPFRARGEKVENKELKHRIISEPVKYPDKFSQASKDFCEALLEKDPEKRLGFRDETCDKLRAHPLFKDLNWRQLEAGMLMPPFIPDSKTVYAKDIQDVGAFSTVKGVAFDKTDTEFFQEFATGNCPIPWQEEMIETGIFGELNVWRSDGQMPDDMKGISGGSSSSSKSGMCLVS
pKd: −log10 of the molar value.
Below, each entry is listed with its recorded pKd.

line.notation | reported.relation | pKd
O=c1c2cc(-c3cncnc3)ccc2ncn1Cc1ccccc1 | < | 4.08
O=c1c2ccc(-c3cn[nH]c3)cc2ncn1Cc1ccccc1 | = | 4.32

====

Assay: Half life in C57BL mouse at 10 mg/kg, po administered as single dose
Format: ADME, organism-based
Conditions: in vivo
measurement.name: half-life (h)

line.notation | measured
COc1cccc(Cn2ncc3ccc(-c4cn[nH]c4)cc3c2=O)c1 | 2.41
